Where do these numbers come from? They come from ChEMBL document CHEMBL3124786.

molecular target: Tyrosine-protein kinase JAK2 (Homo sapiens, UniProt O60674); experiment: Inhibition of Jak2 (unknown origin) assessed as inhibition of STAT5 phosphorylation by cell-based assay
Sequence (O60674 whole entry): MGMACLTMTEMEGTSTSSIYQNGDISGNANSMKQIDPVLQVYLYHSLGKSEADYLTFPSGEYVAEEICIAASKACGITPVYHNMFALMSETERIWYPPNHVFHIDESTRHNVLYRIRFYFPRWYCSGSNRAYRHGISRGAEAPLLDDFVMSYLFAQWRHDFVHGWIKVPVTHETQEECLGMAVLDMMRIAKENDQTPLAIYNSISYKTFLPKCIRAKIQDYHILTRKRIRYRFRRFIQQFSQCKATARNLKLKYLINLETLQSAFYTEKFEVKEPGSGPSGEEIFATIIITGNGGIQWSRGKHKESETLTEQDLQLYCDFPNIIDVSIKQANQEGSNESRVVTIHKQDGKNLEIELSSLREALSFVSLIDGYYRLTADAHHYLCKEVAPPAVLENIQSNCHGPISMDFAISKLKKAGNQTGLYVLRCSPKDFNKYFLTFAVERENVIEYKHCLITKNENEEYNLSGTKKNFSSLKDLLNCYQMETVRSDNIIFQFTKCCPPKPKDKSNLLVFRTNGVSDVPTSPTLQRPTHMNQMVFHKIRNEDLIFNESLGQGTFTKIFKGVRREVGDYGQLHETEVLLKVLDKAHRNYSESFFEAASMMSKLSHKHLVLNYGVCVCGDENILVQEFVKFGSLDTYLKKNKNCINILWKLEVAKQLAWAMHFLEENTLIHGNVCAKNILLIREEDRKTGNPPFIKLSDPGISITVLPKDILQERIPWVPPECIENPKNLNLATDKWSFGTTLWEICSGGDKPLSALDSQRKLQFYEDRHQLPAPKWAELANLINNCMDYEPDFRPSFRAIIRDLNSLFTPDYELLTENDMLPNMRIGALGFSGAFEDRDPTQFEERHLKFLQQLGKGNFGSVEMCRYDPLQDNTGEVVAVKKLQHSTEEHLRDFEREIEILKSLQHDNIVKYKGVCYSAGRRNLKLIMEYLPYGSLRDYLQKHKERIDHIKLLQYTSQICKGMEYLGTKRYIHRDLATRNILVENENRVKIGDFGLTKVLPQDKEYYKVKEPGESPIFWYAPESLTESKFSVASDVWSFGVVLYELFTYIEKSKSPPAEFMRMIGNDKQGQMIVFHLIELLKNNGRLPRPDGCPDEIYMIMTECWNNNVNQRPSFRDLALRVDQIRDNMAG
RECORDED_METRIC: pIC50
Give bare numbers, as −log10 of the molar value.

For each of the compounds below, state pIC50.
1. O=c1[nH]ccc2c(Nc3c(Cl)cc(C(O)C(F)F)cc3Cl)nc3ccncc3c12 (stereo not drawn)
2. O=c1[nH]ccc2c(Nc3c(Cl)cc(-c4ccn[nH]4)cc3Cl)nc3ccncc3c12
3. CC(O)c1cc(Cl)c(Nc2nc3ccncc3c3c(=O)[nH]ccc23)c(Cl)c1 (stereo not drawn)

Given back:
1: 7.59; 2: 7.43; 3: 7.92

====

molecular target: Tyrosine-protein kinase JAK2 (Homo sapiens, UniProt O60674); assay: Inhibition of recombinant Jak2 (unknown origin) using biotinylated synthetic peptide substrate by homogeneous time resolved fluorescence assay
RECORDED_METRIC: IC50 (nM)
Give bare numbers, in nM.

Guide cases for IC50, answers given:
{"LINE_NOTATION": "O=c1[nH]ccc2c(Nc3c(F)cc(F)cc3F)nc3ccncc3c12", "IC50 [nM]": 7}
{"LINE_NOTATION": "O=c1[nH]ccc2c(Nc3c(Cl)cncc3Cl)nc3ccncc3c12", "IC50 [nM]": 2}
{"LINE_NOTATION": "NS(=O)(=O)c1cc(Cl)c(Nc2nc3ccncc3c3c(=O)[nH]ccc23)c(Cl)c1", "IC50 [nM]": 0.15}
{"LINE_NOTATION": "O=c1[nH]ccc2c(NC3CC3)nc3ccc(F)cc3c12", "IC50 [nM]": 200}

Read the next record carefully.
Asked: Entry CC(C)(O)c1cc(Cl)c(Nc2nc3ccncc3c3c(=O)[nH]ccc23)c(Cl)c1 has what IC50?
Given back: 0.5

====

test: Volume of distribution in rat; assay type: ADME, organism-based; conditions: in vivo
RECORDED_METRIC: Vd
Don't forget the unit after the value.

Asked: Entry O=c1[nH]ccc2c(Nc3c(F)cc(F)cc3Cl)nc3ccncc3c12 has what Vd?
Given back: 2.6 L/kg

====

molecular target: Tyrosine-protein kinase JAK2 (Homo sapiens); assay: Inhibition of recombinant Jak2 (unknown origin) using biotinylated synthetic peptide substrate by homogeneous time resolved fluorescence assay
RECORDED_METRIC: IC50 (nM)
Answers are plain numbers, in nM.

Guide cases for IC50, answers given:
{"COMPOUND": "O=c1[nH]ccc2c(Nc3c(F)cc(F)cc3Cl)nc3ccncc3c12", "REPORTED_MEASUREMENT": 0.9}
{"COMPOUND": "O=c1[nH]ccc2c(Nc3c(Cl)cc(C(O)C(F)F)cc3Cl)nc3ccncc3c12 (stereo not given)", "REPORTED_MEASUREMENT": 0.2}
{"COMPOUND": "O=c1[nH]ccc2nc(NC3CC3)c3ccc(F)cc3c12", "REPORTED_MEASUREMENT": 100}
{"COMPOUND": "CC(C)[C@H](Nc1nc2ccncc2c2c(=O)[nH]ccc12)C(F)(F)F", "REPORTED_MEASUREMENT": 10}
{"COMPOUND": "O=c1[nH]ccc2c(Nc3c(Cl)cc(F)cc3Cl)nc3ccncc3c12", "REPORTED_MEASUREMENT": 0.8}
{"COMPOUND": "O=c1[nH]ccc2c(Nc3c(F)cccc3C(F)(F)F)nc3ccncc3c12", "REPORTED_MEASUREMENT": 9}
{"COMPOUND": "CC(O)c1cc(Cl)c(Nc2nc3ccncc3c3c(=O)[nH]ccc23)c(Cl)c1 (stereo not given)", "REPORTED_MEASUREMENT": 0.6}
{"COMPOUND": "O=c1[nH]ccc2c(Nc3c(Cl)cc(C(F)(F)F)cc3Cl)nc3ccncc3c12", "REPORTED_MEASUREMENT": 1}

For each of the compounds below, state IC50.
1. O=c1[nH]ccc2c(Nc3c(Cl)cc(OC(F)(F)F)cc3Cl)nc3ccncc3c12
2. O=c1[nH]ccc2c(Nc3c(Cl)cc(-c4ccn[nH]4)cc3Cl)nc3ccncc3c12

Given back:
3
1
